Source listed as the supplement of paper PMC6470124.

measurement.notes: absolute recovery over mixed-bed multilayer solid-phase extraction; higher = better recovery
condition.summary: nanopure water; enrichment method: SPE
quantity.measured: absolute recovery
// return the numeric value with its unit appended

Some solved entries appear below for comparison.
- C#CCOc1ccc(CCNC(=O)C(OCC#C)c2ccc(Cl)cc2)cc1OC (centres undefined): 105%
- COC(=O)c1ccccc1S(N)(=O)=O: 118%
- CC12CCC(=O)C=C1CCC1C2C(O)CC2(C)C(C(=O)CO)CCC12 (centres undefined): 87.8%
- N#Cc1c(Cl)c(Cl)c([O-])c(C(=[NH2+])[O-])c1Cl: 101%

Give measured absolute recovery for every item shown.
1. COc1ccc(C(C[NH+](C)C)C2(O)CCCCC2)cc1 (centres undefined)
2. CCN(CC)C(=O)C(C)Oc1cccc2ccccc12 (centres undefined)

A.
95.3%
96.6%

Give measured absolute recovery for every item shown.
1. CC(C)c1nc(N(C)S(C)(=O)=O)nc(-c2ccc(F)cc2)c1C=CC(O)CC(O)CC(=O)[O-] (centres undefined)
2. NC(=O)N1c2ccccc2C(O)C(O)c2ccccc21 (centres undefined) [Carbamazepin-10-11-dihydro-10-11-dihydroxy]
3. Nc1cnn(-c2ccccc2)c(=O)c1Cl

A.
1: 96.2%; 2: 95.2%; 3: 97.1%

----------
measurement.notes: absolute recovery over mixed-bed multilayer solid-phase extraction; higher = better recovery
condition.summary: nanopure water; enrichment method: SPE
Entry flag: y if absolute recovery reaches 90%; n if it does not.

* Cc1ccc(-c2c(Cl)nc(C#N)n2S(=O)(=O)N(C)C)cc1 [Cyazofamid] | n
* FC(F)(F)c1cccc(N2CC[NH2+]CC2)c1 [1-(3-Trifluoromethylphenyl)-piperazine] | n
* CC(C)(Oc1ccc(CCNC(=O)c2ccc(Cl)cc2)cc1)C(=O)[O-] [Bezafibrat] | y
* CC[N+]1([O-])CCCC1CNC(=O)c1cc(S(=O)(=O)CC)c(N)cc1OC (stereo not drawn) [Amisulpride-N-Oxide] | y
* Nc1nc(=O)c2ncn(CCC(CO)CO)c2[nH]1 [Penciclovir] | n

Q. Quick check: does O=C1Nc2ccc(Cl)cc2C(C#CC2CC2)(C(F)(F)F)O1 (stereo not drawn) [Efavirenz] have absolute recovery greater than or equal to 90%?
A. y

Q. Input CCC(=O)OC(OP(=O)(CCCCc1ccccc1)CC(=O)N1CC(C2CCCCC2)CC1C(=O)[O-])C(C)C (stereo not drawn) [Fosinopril]
A. y

Q. Input CC(C)c1ccc(NC(N)=O)cc1 [Isoproturon-didemethyl (=1-(4-Isoprophenyl)urea)]
A. y

Q. Input CN1C(=O)CN=C(C2=CCCCC2)c2cc(Cl)ccc21 [Tetrazepam]
A. n

Q. Input CC(=O)N(CC(O)CN(C(C)=O)c1c(I)c(C(=O)NCC(O)CO)c(I)c(C(=O)NCC(O)CO)c1I)c1c(I)c(C(=O)NCC(O)CO)c(I)c(C(=O)NCC(O)CO)c1I (stereo not drawn) [Iodixanol]
A. y

----------
measurement.notes: absolute recovery over mixed-bed multilayer solid-phase extraction; higher = better recovery
condition.summary: surface water; enrichment method: SPE
quantity.measured: absolute recovery
// return the numeric value with its unit appended

Some solved entries appear below for comparison.
• C[N+](C)([O-])CCC(c1ccccc1)c1ccccn1 (centres undefined) [Pheniramine-N-oxide] = 93.4%
• CCOC(=O)OC1=C(c2cc(C)ccc2C)C(=O)NC12CCC(OC)CC2 (centres undefined) [Spirotetramat] = 16.9%
• COc1nn(CSP(=S)(OC)OC)c(=O)s1 [Methidathion] = 97.9%
• C[NH2+]CCC(Oc1ccc(C(F)(F)F)cc1)c1ccccc1 (centres undefined) [Fluoxetin] = 90.2%
• COC(=O)c1csc(C)c1S(=O)(=O)[N-]C(=O)n1nc(OC)n(C)c1=O [Thiencarbazone] = 93.9%
• Cc1c(N)c(=O)n(-c2ccccc2)n1C [4-Aminopyrin (=4-Aminoantipyrin, 4-AA)] = 55.7%

Give measured absolute recovery for every item shown.
1. Nc1nc(=O)n(C2CSC(CO)O2)cc1F (centres undefined) [Emtricitabine]
2. C[NH2+]CCC(Oc1ccccc1C)c1ccccc1 (centres undefined) [Atomoxetin]

A.
87.2%
87%

Give measured absolute recovery for every item shown.
1. CC(C)[NH+](CCC(C(N)=O)(c1ccccc1)c1ccccn1)C(C)C (centres undefined) [Disopyramide]
2. CC(Oc1ccc(Oc2ncc(C(F)(F)F)cc2Cl)cc1)C(=O)[O-] (centres undefined) [Haloxyfop]
3. CSc1nc2cc(Oc3cccc(Cl)c3Cl)c(Cl)cc2[nH]1 [Triclabendazol]
4. Nc1ccc(S(=O)(=O)[O-])cc1 [Sulfanilic-acid]
5. Clc1cccc(N2CC[NH2+]CC2)c1 [1-(3-Chlorophenyl)-piperazine]

A.
1: 94.4%; 2: 73.9%; 3: 111%; 4: 3.8%; 5: 74.7%

Give measured absolute recovery for every item shown.
1. CCOC(=O)C1(c2ccccc2)CC[NH+](C)CC1 [Meperidine]
2. O=C([O-])C(F)(F)C(F)(F)C(F)(F)F [PFBA]
3. Cc1cc(C)nc(Nc2ccccc2)n1 [Pyrimethanil]
4. CC12CCC(=O)C=C1CCC1C2C(O)CC2(C)C(C(=O)CO)CCC12 (centres undefined) [Corticosteron]
5. c1ccc2c(c1)Cc1ccccc1N1CC[NH2+]CC21 (centres undefined) [Normianserin]
6. CC(=O)OCC(=O)C1(O)C(C)CC2C3CCC4=CC(=O)C=CC4(C)C3(F)C(O)CC21C (centres undefined) [Betamethasone 21-acetate C]

A.
87.8%
42.8%
91.1%
71.9%
95.2%
89.4%

----------
measurement.notes: absolute recovery over mixed-bed multilayer solid-phase extraction; higher = better recovery
condition.summary: wastewater effluent; enrichment method: SPE
Entry flag: T if absolute recovery reaches 90%; F if it does not.

Answered examples (5):
• NC(=O)N1c2ccccc2C(O)C(O)c2ccccc21 (stereo unspecified) [Carbamazepin-10-11-dihydro-10-11-dihydroxy] = T
• COc1ccc2c(c1)C13CCCCC1C(C2)[NH+](C)CC3 (stereo unspecified) [Dextromethorphan] = T
• Cc1cc(C(C)(C)C)cc(C)c1CC1=[NH+]CCN1 [Xylometazolin] = F
• Cc1cn(C2CC(N=[N+]=[N-])C(CO)O2)c(=O)[nH]c1=O (stereo unspecified) [Zidovudine] = T
• CCc1cccc(C)c1N1C(=O)COCC1C (stereo unspecified) [Metolachlor-Morpholinon] = F

Next up:
Q. Quick check: does CN1CC[NH+]=C(c2ccccc2)c2cc(Cl)ccc21 [Medazepam] have absolute recovery greater than or equal to 90%?
A. T

----------
measurement.notes: absolute recovery over mixed-bed multilayer solid-phase extraction; higher = better recovery
condition.summary: nanopure water; enrichment method: SPE
quantity.measured: absolute recovery (%)
Give bare numbers, in %.

Some solved entries appear below for comparison.
- COC(=O)Nc1nc2ccccc2[nH]1: 96.1
- CC(C)c1ccc(NC(=O)N(C)C)cc1: 98.5
- O=C([O-])COCC[NH+]1CCN(C(c2ccccc2)c2ccc(Cl)cc2)CC1 (stereo not given): 97.8
- COc1cccc(C2(O)CCCCC2C[N+](C)(C)[O-])c1 (stereo not given) [Tramadol-N-oxide]: 99.4
- O=c1[nH]cc(F)c(=O)[nH]1: 5

Give measured absolute recovery for every item shown.
1. CN(C)C(=[NH2+])NC(N)=[NH2+]
2. O=C(c1ccccc1)c1ccc(Cl)cc1
3. COc1ccc(C2Sc3ccccc3N(CC[NH+](C)C)C(=O)C2OC(C)=O)cc1 (stereo not given)
4. CC(C1CC1)C(O)(Cn1cncn1)c1ccc(Cl)cc1 (stereo not given)
5. COCCN(C(=O)CS(=O)(=O)[O-])c1c(C)cccc1C

A.
[88.2, 83.1, 89, 99.4, 95.5]

----------
measurement.notes: LC retention time (Atlantis T3, 5-95% MeOH gradient, 0.1% formic acid); higher = more retained / less polar
quantity.measured: LC retention time (min)
Answers are plain numbers, in min.

Some solved entries appear below for comparison.
- OC(Cn1cncn1)(Cn1cncn1)c1ccc(F)cc1F: 14.2
- O=C([O-])c1cc(Oc2ccc(Cl)cc2Cl)ccc1[N+](=O)[O-]: 23.4
- CCC1OC(=O)C(C)C(OC2CC(C)(OC)C(O)C(C)O2)C(C)C(OC2OC(C)CC([NH+](C)C)C2O)C(C)(O)CC(C)C(=NOCOCCOC)C(C)C(O)C1(C)O (stereo not given): 17
- CC(Oc1ccc(Oc2ncc(C(F)(F)F)cc2Cl)cc1)C(=O)[O-] (stereo not given): 21

Q. Any idea what LC retention time was measured for CC(C)Cc1ccc(C(C)C(=O)[O-])cc1 (stereo not given) ?
A. 21

----------
I'd be grateful if you could share measured absolute recovery for these entries.
measurement.notes: absolute recovery over vacuum-assisted evaporative concentration; higher = better recovery
condition.summary: wastewater influent; enrichment method: VEC
// return the numeric value with its unit appended

Some solved entries appear below for comparison.
- CC1(C)CCC(Cc2ccc(Cl)cc2)C1(O)Cn1cncn1 (stereo unspecified) [Metconazole]: 105%
- Cc1cccc(Nc2ccncc2S(=O)(=O)[N-]C(=O)NC(C)C)c1 [Torasemid]: 105%
- c1ccc(C2CN3CCSC3=[NH+]2)cc1 (stereo unspecified) [Levamisol]: 98.7%
- CC1COc2c(N3CCN(C)CC3)c(F)cc3c(=O)c(C(=O)[O-])cn1c23 (stereo unspecified) [Levofloxacin]: 135%
- CON=C(C(=O)OC)c1ccccc1COc1ccccc1C [Kresoxim-methyl]: 89.9%
- O=C([O-])c1cccc(Oc2ccccc2)c1 [3-Phenoxybenzoic-acid]: 102%
- Cc1ncc([N+](=O)[O-])n1CCO [Metronidazol]: 102%
- CCCC(NOCC)=C1C(=O)CC(C2CCCSC2)CC1=O (stereo unspecified) [Cycloxydim]: 76.6%
- CC(O)C(=O)Nc1c(I)c(C(=O)NC(CO)CO)c(I)c(C(=O)NC(CO)CO)c1I (stereo unspecified) [Iopamidol]: 103%
- COc1cccc2c1C(=O)c1c(O)c3c(c(O)c1C2=O)CC(O)(C(O)CO)CC3OC1CC([NH3+])C(O)C(C)O1 (stereo unspecified) [Doxorubicinol]: 65.4%

Give measured absolute recovery for every item shown.
1. O=c1c(-c2ccc(O)cc2)coc2cc([O-])cc(O)c12 [Genistein]
2. COC(=O)C(C)N(C(=O)Cc1ccccc1)c1c(C)cccc1C (stereo unspecified) [Benalaxyl]
3. O=C(Nc1ccccc1-c1ccc(Cl)cc1)c1cccnc1Cl [Boscalid]
4. CCC1OC(=O)C(C)C(OC2CC(C)(OC)C(O)C(C)O2)C(C)C(OC2OC(C)CC([NH+](C)C)C2O)C(C)(O)CC(C)C(=NOCOCCOC)C(C)C(O)C1(C)O (stereo unspecified) [Roxithromycin]
5. C#CC(C)(C)NC(=O)c1cc(Cl)cc(Cl)c1 [Propyzamide]

A.
1. 89.9%
2. 94.9%
3. 105%
4. 90.4%
5. 88.4%

Give measured absolute recovery for every item shown.
1. CC1(C)SC(CNC(=O)C([NH3+])c2ccc(O)cc2)[NH2+]C1C(=O)[O-] (stereo unspecified) [Amoxicillin-EP-Impurity-E]
2. CC12CCC3=C4CCC(=O)C=C4CCC3C1CCC2(O)CC#N (stereo unspecified) [Dienogest]

A.
96.9%
92.2%
